ASSAYED_SYSTEM: hCMV gH + gL + UL128 + UL130 + UL131A (co-expressed in HEK293T cells) (human cytomegalovirus), P12824
ASSAY_METHOD_TEXT: competitor: 2F4-biotin; cell staining
CONDITION_INFO: remark: other sources report otherwise
VALUE_KIND: Inhibition of binding (%)
Numbers only, in %.

Worked cases, Inhibition of binding (%) given:
BINDER	MEAS_VALUE
10P3 (antibody, V domains shown) VH: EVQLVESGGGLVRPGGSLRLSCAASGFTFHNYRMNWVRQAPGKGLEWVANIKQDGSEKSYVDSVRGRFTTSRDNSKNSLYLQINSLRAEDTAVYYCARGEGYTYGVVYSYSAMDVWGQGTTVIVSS VL: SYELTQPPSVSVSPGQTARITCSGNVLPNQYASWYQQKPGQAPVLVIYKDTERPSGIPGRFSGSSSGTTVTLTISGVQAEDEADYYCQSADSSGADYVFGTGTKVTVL	0
15D8 (antibody, V domains shown) VH: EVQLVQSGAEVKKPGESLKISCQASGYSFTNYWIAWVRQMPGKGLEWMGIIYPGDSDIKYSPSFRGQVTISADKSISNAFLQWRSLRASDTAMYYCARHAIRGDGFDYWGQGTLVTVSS VL: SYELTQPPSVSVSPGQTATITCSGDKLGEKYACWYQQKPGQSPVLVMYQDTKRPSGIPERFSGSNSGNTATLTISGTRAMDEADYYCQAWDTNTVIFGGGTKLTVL	0

Could you tell me Inhibition of binding (%) for each of these binders? They are listed below.
1. 2C12 (antibody, V domains shown) VH: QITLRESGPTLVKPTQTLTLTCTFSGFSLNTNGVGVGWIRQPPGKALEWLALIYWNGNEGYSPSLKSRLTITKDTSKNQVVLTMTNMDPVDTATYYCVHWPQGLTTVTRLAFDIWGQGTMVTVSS VL: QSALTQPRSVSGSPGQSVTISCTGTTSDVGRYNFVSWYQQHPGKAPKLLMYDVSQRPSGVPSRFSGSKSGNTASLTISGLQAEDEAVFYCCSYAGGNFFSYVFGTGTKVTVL
2. 4I22 (antibody, V domains shown) VH: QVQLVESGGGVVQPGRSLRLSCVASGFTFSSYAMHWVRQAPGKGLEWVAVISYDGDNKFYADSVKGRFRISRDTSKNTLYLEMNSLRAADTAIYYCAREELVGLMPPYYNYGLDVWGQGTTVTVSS VL: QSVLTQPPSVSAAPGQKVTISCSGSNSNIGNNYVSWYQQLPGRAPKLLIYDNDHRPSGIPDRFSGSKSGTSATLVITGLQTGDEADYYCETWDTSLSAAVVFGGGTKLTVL

1: 0; 2: 100
